These entries and their values trace back to paper PMC11784839.

- TESTED ON: tau (Homo sapiens, UniProt P10636)
- Sequence (P10636 623-695 limits assumed): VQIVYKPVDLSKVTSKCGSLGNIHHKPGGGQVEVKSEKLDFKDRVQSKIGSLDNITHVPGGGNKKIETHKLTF
- TEST DESCRIPTION: MCE Phenols Library screening, tau biosensor cell seeding assay (AvZ)
- Type: cell-based
- SETTINGS: puncta, replicate 1

[
  {
    "MOLECULE": "COc1cc(/C=C/C(=O)OCC[N+](C)(C)C)cc(OC)c1O.N#C[S-] [Sinapine (thiocyanate)]",
    "raw data 1": 27602.3
  },
  {
    "MOLECULE": "O=c1c(O)c(-c2ccc(O)cc2O)oc2cc(O)cc(O)c12",
    "raw data 1": 5911.71
  },
  {
    "MOLECULE": "C[C@@H]1O[C@@H](Oc2cc(O)c3c(=O)c(O[C@@H]4O[C@@H](C)[C@H](O)[C@@H](O)[C@H]4O)c(-c4ccc(O)cc4)oc3c2)[C@H](O)[C@H](O)[C@H]1O",
    "raw data 1": 9507.36
  },
  {
    "MOLECULE": "CC(C)=CCc1cc2c(cc1O)O[C@H](c1ccc(O)cc1)CC2=O",
    "raw data 1": 22229.8
  }
]

---

- TESTED ON: tau (Homo sapiens, UniProt P10636)
- TEST DESCRIPTION: MCE Phenols Library screening, tau biosensor cell seeding assay (AvZ)
- Assay type: cell-based
- SETTINGS: puncta, replicate 2
With a cut-off of 10000, any raw data 2 strictly below it is called Condition met; any raw data 2 meeting it or above is called Condition not met.

[
  {
    "COMPOUND": "COc1cc(-c2coc3cc4c(c(O)c3c2=O)OCO4)cc(O)c1OC",
    "CLASS NAME": "Condition not met"
  },
  {
    "COMPOUND": "O=C(/C=C/c1ccc(O)c(O)c1)c1ccc(O)cc1O",
    "CLASS NAME": "Condition not met"
  },
  {
    "COMPOUND": "O=C(O)CC(O)(CC(=O)OCc1ccc(O[C@@H]2O[C@H](CO)[C@@H](O)[C@H](O)[C@H]2O)cc1)C(=O)OCc1ccc(O[C@@H]2O[C@H](CO)[C@@H](O)[C@H](O)[C@H]2O)cc1 (some centres unmarked)",
    "CLASS NAME": "Condition not met"
  },
  {
    "COMPOUND": "O=C1C[C@@H](c2ccc(O)cc2)Oc2cc(O[C@@H]3O[C@H](CO)[C@@H](O)[C@H](O)[C@H]3O)cc(O)c21",
    "CLASS NAME": "Condition not met"
  },
  {
    "COMPOUND": "O=c1cc(-c2ccccc2)oc2cccc(O)c12 [5-Hydroxyflavone]",
    "CLASS NAME": "Condition met"
  },
  {
    "COMPOUND": "C[C@@H]1O[C@@H](O[C@H]2[C@H](Oc3c(-c4ccc(O)cc4)oc4cc(O)cc(O)c4c3=O)O[C@H](CO)[C@@H](O)[C@@H]2O)[C@H](O)[C@H](O)[C@H]1O [Kaempferol 3-neohesperidoside]",
    "CLASS NAME": "Condition met"
  },
  {
    "COMPOUND": "O=C(/C=C/c1ccc(O)c(O)c1)O[C@@H](C(=O)O)[C@@H](O)C(=O)O",
    "CLASS NAME": "Condition met"
  },
  {
    "COMPOUND": "O=c1ccc2cc(O)c(O)cc2o1",
    "CLASS NAME": "Condition met"
  }
]
